System: OVCAR-5 ovarian
Test: NCI tumour cell line growth inhibition, 48 h
Experimental Readout: TGI

O[C@@]1(C#Cc2ccc3c(c2)OCO3)CCC[C@H]1NCc1ccccc1 | > 100 µM
C=C(C)C1CC[C@@](C)(O)[C@H](C#N)C1 (stereo not given in full) | > 100 µM
COc1ccc(OC)c(Nc2nc3nonc3nc2Nc2cccc(Br)c2)c1 | > 100 µM
CSC1=NN(C(C)=O)C(C(OC(C)=O)C(OC(C)=O)C(OC(C)=O)C(COC(C)=O)OC(C)=O)S1 (stereo not given) | > 100 µM
c1ccc(C2=NN2c2ccccc2)cc1 | > 100 µM
S=C1NC2=C(CSC/C2=C\c2ccc(Cl)cc2)C(c2ccc(Cl)cc2)N1 (stereo not given) | > 100 µM
O/N=C(\CC(O)(C(F)(F)F)C(F)(F)F)c1cccs1 | > 10 µM
Cn1c(CCCC(=O)O)nc2cc(N(CCCl)CCCl)ccc21 | > 100 µM
CC(=O)OCC1(C)C(O)CCC2(C)C1CCC1CC3CC12CCC3(O)CO (stereo not given) | > 100 µM
C=C(C)[C@H]1CC[C@@]23O[C@@H]2[C@@H](C[C@@]2(C)CC(=O)[C@H](CC(=O)C1)O2)OC(=O)[C@@]12CC[C@H](C(=C)C)CC(=O)C[C@H]4O[C@](C)(CC4=O)C[C@@H](OC3=O)[C@@H]1O2 | > 100 µM

Qu. Could you tell me which TGI is on file for [N-]=[N+]=NC1C(O)C(CO)OC1n1ccc(N)nc1=O (stereo not given) ?
Ans. > 625 µM

Qu. Could you tell me which TGI is on file for CCOc1cc(-c2nncn2C)ccc1Nc1ncc2cc(C)nc(NCC(C)(C)C)c2n1 ?
Ans. > 100 µM

Qu. Could you tell me which TGI is on file for C/C=C/C(=O)Oc1cccc2cccnc12 ?
Ans. > 100 µM

Qu. Could you tell me which TGI is on file for Cc1ccc(N(C=O)c2c([N+](=O)[O-])cc([N+](=O)[O-])c3c2=[N+]([O-])CN=3)cc1 ?
Ans. > 100 µM

Qu. Could you tell me which TGI is on file for Cc1cc(C)c(NS(=O)c2cccc(C(F)(F)F)c2)c(C)c1 (stereo not given) ?
Ans. > 100 µM

Qu. Could you tell me which TGI is on file for CN(c1ccccc1)c1cc2ccccc2nn1 ?
Ans. > 100 µM

Qu. Could you tell me which TGI is on file for COc1ccc2c(c1)C(=Nc1ccc(F)c(Cl)c1)c1c-2c(Nc2ccc(F)c(Cl)c2)nc2ccccc12 ?
Ans. > 100 µM

Qu. Could you tell me which TGI is on file for C[C@]12CC[C@H](O[C@@H]3O[C@H](CO[C@@H]4O[C@H](CO)[C@@H](O)[C@H](O)[C@H]4O)[C@@H](O)[C@H](O)[C@H]3O)C[C@@H]1CC[C@@H]1[C@@H]2CC[C@]2(C)[C@@H](C3=CC(=O)OC3)CC[C@]12O ?
Ans. > 76.6 µM

Qu. Could you tell me which TGI is on file for COc1cc(C(=O)/C=C/c2cc(-c3ccc4c(c3)OCO4)n[nH]2)cc(OC)c1OC ?
Ans. 9.6 µM

Qu. Could you tell me which TGI is on file for O=C(Nc1ccncc1)C(=O)c1cn(S(=O)(=O)c2cccc(Cl)c2)c2ccccc12 ?
Ans. > 100 µM

Qu. Could you tell me which TGI is on file for C=C1C(=O)O[C@H](c2ccoc2)C[C@@H]1[C@@]1(C)CCCC2(C)C(=O)OCC21 (stereo not given in full) ?
Ans. > 100 µM
